experiment: chemical genetic growth profiling, strain panel (AID 1159580);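 also: tested at 20 µM; growth read once vehicle control cultures reached saturation at 30 °C; 1 = growth at the plate median or of vehicle wells; lower values mean less growth of the strain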; conditions: S. cerevisiae deletion strains, growth OD, locus YKL067W, strain YNK1, stronger effect = lower value
The campaign covered roughly 5,500 compounds. About 2,000 (36%) were called active. Roughly 18% stayed inconclusive and do not appear here. This is one part of the list.
Quick reference for normalized growth among some compounds

Compound: Cc1nc(-c2ccccn2)[nH]c(=O)c1Cc1c(Cl)cccc1Cl
normalized growth: 0.881

Compound: O=C(CSCc1csc2ccccc12)Nc1ccc(F)c(Cl)c1
normalized growth: 0.897

Compound: S=C(Nc1ccc(Cl)cc1)SCc1c(Cl)cccc1Cl
normalized growth: 0.972

Compound: Cc1ccc(S(=O)(=O)n2c(Sc3ccc([N+](=O)[O-])cc3[N+](=O)[O-])nc3cc(C)ccc32)cc1
normalized growth: 0.935

Compound: Nc1ccc(Sc2ccccc2)nc1Sc1ccccc1
normalized growth: 0.908

Compound: COc1cccc(NC(=S)NC2CC(C)CC(C)(C)C2)c1 (stereo unspecified)
normalized growth: 0.983

====

test: chemical genetic growth profiling, strain panel (AID 1159580);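 also: tested at 20 µM; growth read once vehicle control cultures reached saturation at 30 °C; 1 = growth at the plate median or of vehicle wells; lower values mean less growth of the strain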; conditions: S. cerevisiae deletion strains, growth OD, locus YFR003C, strain YPI1, stronger effect = lower value
Hit rate of the full screen: of about 5,500 compounds, about 2,000 (36%) were called active. About 18% were inconclusive and are not listed. The list shows a part of the results.

Compound: O=C(NCCc1ccncc1)c1ccc(Cl)c(Cl)c1
normalized growth: 0.984
--
Compound: Cc1ccc(S(=O)(=O)n2c(Sc3ccc([N+](=O)[O-])cc3[N+](=O)[O-])nc3cc(C)ccc32)cc1
normalized growth: 0.986
--
Compound: Cc1ccc(C)c(CSc2nc(C3CCCCC3)c(C#N)c(=O)[nH]2)c1
normalized growth: 0.98
--
Compound: S=C(NNC(=S)NC1CC2C=CC1C2)Nc1ccc(Br)c(Cl)c1 (stereo unspecified)
normalized growth: 0.985
--
Compound: CCOC(=O)c1cc(CC)sc1NC(=O)c1ccc([N+](=O)[O-])o1
normalized growth: 1
--
Compound: O=S(=O)(NC(=S)Nc1ccc(Cl)c(Cl)c1)c1ccccc1
normalized growth: 1

====

assay: chemical genetic growth profiling, strain panel (AID 1159580);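 also: tested at 20 µM; growth read once vehicle control cultures reached saturation at 30 °C; 1 = growth at the plate median or of vehicle wells; lower values mean less growth of the strain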; conditions: S. cerevisiae deletion strains, growth OD, locus YDR162C, strain NBP2, stronger effect = lower value
The campaign covered roughly 5,500 compounds. About 2,000 (36%) were called active. Not shown: some 18% with an inconclusive outcome. Some of the results follow. Where a SMILES comes first, the peptide text is derived from it. Bridges are numbered along the chain shown (N, C = ends). [ ]: non-standard residue; d: D form. The star is where a group is joined. ξ: configuration not given here. ξDab(CH2SO3H) = NC(CCNCS(=O)(=O)O)C(=O)O; Heptanoyl(6-Me) = CC(C)CCCCC(=O)*; Dab = NCC[CH](N)C(=O)O
Measurement Name: normalized growth

Compound: COc1ccc2c(c1)c(CC(=O)O)c(C)n2C(=O)c1ccc(Cl)cc1
Measured Result: 0.995
--
Compound: O=C(COc1ccc(Cl)cc1)N1CCN(Cc2ccc3c(c2)OCO3)CC1
Measured Result: 0.918
--
Compound: C[C@@H]1C(=O)O[C@H]2[C@H]1CC[C@@]1(C)C=CC(=O)[C@@]3(C)O[C@@]213
Measured Result: 1.02
--
Compound: C[C@@H]1CC[C@H]2[C@@H](C)C(=O)O[C@@H]3O[C@@]4(C)CC[C@@H]1[C@]32OO4
Measured Result: 0.817
--
Compound: COc1ccc2c(c1)c(CC(=O)OCC(=O)O)c(C)n2C(=O)c1ccc(Cl)cc1
Measured Result: 1.01
--
Compound: Cc1ccnc(NS(=O)(=O)c2ccc(N)cc2)n1
Measured Result: 1
--
Compound: CCOP(=S)(OCC)Oc1cc(C)nc(C(C)C)n1
Measured Result: 0.976
--
Compound: N#CC(O[C@@H]1O[C@H](CO[C@@H]2O[C@H](CO)[C@@H](O)[C@H](O)[C@H]2O)[C@@H](O)[C@H](O)[C@H]1O)c1ccccc1 (some centres undefined)
Measured Result: 1.04
--
Compound: COc1ccc2[nH]cc(CCN)c2c1
Measured Result: 0.945
--
Compound: CC(C)CC(N(C)C)C1(c2ccc(Cl)cc2)CCC1 (centres undefined)
Measured Result: 0.99
--
Compound: Cc1cc(O)ccc1Cl
Measured Result: 0.986
--
Compound: Nc1ccc(S(=O)(=O)Nc2cnc3ccccc3n2)cc1
Measured Result: 0.999
--
Compound: O=c1cc(CO)occ1O
Measured Result: 1.04
--
Compound: Cc1cc(O)cc(O)c1C(=O)O
Measured Result: 1.01
--
Compound: CO[C@@]12[C@@H]3NC3CN1C1=C(C(=O)C(N)=C(C)C1=O)[C@@H]2COC(N)=O (some centres undefined)
Measured Result: 1.05
--
Compound: CC(=O)NC(C(=O)O)C(C)(C)SN=O (centres undefined)
Measured Result: 1.03
--
Compound: CCC(C)C1NC(=O)C(CCNCS(=O)(=O)O)NC(=O)C(NC(=O)C(CCNCS(=O)(=O)O)NC(=O)C(NC(=O)C(CCNCS(=O)(=O)O)NC(=O)CCCCC(C)C)C(C)O)CCNC(=O)C(C(C)O)NC(=O)C(CCNCS(=O)(=O)O)NC(=O)C(CCNCS(=O)(=O)O)NC(=O)C(C(C)CC)NC1=O (centres undefined) ({Heptanoyl(6-Me)}-[ξDab(CH2SO3H)]T[ξDab(CH2SO3H)][Dab][ξDab(CH2SO3H)]II[ξDab(CH2SO3H)][ξDab(CH2SO3H)]T; lactam 4-C; configuration not given here)
Measured Result: 0.98
--
Compound: O=c1oc2cc(O)ccc2s1
Measured Result: 0.968
--
Compound: Cc1cc(O)cc(=O)o1
Measured Result: 1.02
